Entries and their measured pIC50 follow.
- Test Target: Gag-Pol polyprotein [588-1027]/[588-1147] (Human immunodeficiency virus 1, UniProt P04585)
- Construct: 588-1027; 588-1147
- Protocol Details: HIV-1 RT Assay
pIC50: −log10 of the molar value.
Property Name: pIC50

Compound | Assay Value
COC(=O)c1cc(C(=CCCCC(=O)N2CCCCC2)c2cc(Cl)c(OC)c(C(=O)OC)c2)cc(Cl)c1OC | < 4.00
CCNC(=O)NCCC=C(c1cc(Cl)c(OC)c(C(=O)OC)c1)c1cc(Cl)c(OC)c(C(=O)OC)c1 | < 4.00
COC(=O)c1cc(C(=CCCCC(=O)OCC[Si](C)(C)C)c2cc(C)c(OC)c(C(=O)OC)c2)cc(C)c1OC | < 4.00
COC(=O)c1cc(C(=CCCCC(OC)OC)c2cc(Cl)c(OC)c(C(=O)OC)c2)cc(Cl)c1OC [Alkenyldiarylmethane (ADAM) 38a] | < 4.00
COC(=O)c1cc(C(=CCCNC(C)=O)c2cc(Cl)c(OC)c(C(=O)OC)c2)cc(Cl)c1OC | < 4.00
CNC(=S)NCCC=C(c1cc(Cl)c(OC)c(C(=O)OC)c1)c1cc(Cl)c(OC)c(C(=O)OC)c1 | < 4.00
